Recorded Csec (drug concentration of the secondary peak in C–T curve), one value per entry.
# ASSAY INFO: PK study of the 12 alkaloids in rat plasma after oral administration of ZJ and FZJ extract (LC–MS/MS)
# Format: in vivo
# SETTINGS: rat plasma, oral ZJ extract, mean ± SD, n = 6
VALUE TYPE: Csec (drug concentration of the secondary peak in C–T curve) (ng/mL)

COMPOUND	TEST RESULT
O=C1NCCc2cc3c(cc21)OCO3 [noroxyhydrastinine]	16.29
COc1cc2c(cc1OC)-c1cc3ccc4c(c3c[n+]1CC2)OCO4 [epiberberine]	5.51
COc1cc2c(cc1OC)-c1cc3ccc4c(c3c(=O)n1CC2)OCO4 [8-oxoepiberberine]	1.85
COc1cc2c(cc1OC)C(=O)NCC2	9.03
Cn1c(=O)n(CCC2(O)C(=O)Nc3ccccc32)c(=O)c2ccccc21 (centres unmarked) [wuchuyuamide-I]	2.55
CCCCC=CCCCCCCCc1cc(=O)c2ccccc2n1C	7.36
O=c1c2c3c(ccc2cc2n1CCc1cc4c(cc1-2)OCO4)OCO3	2.42
COc1ccc2cc3[n+](cc2c1OC)CCc1cc2c(cc1-3)OCO2	44.68

* * *

# ASSAY INFO: PK study of the 12 alkaloids in rat plasma after oral administration of ZJ and FZJ extract (LC–MS/MS)
# Type: in vivo
# SETTINGS: 3.38 g/kg; rat plasma, oral ZJ extract, mean ± SD, n = 6; read-out: AUC0→t
# Description: The time schedule included 15 time-points and six rats were sampled at each time-point. […] PK parameters of the 12 alkaloids including AUC0→t, AUC0→∞, mean retention time (MRT0→t, MRT0→∞), and elimination half-life (t1/2) were calculated with non-compartmental method by DAS 2.0 software (Mathematical Pharmacology Professional Committee of China, Shanghai, China). […] The results were expressed as arithmetic mean ± standard deviation (SD).
We use 50 ng·h/mL as the dividing line for AUC(0-t): on or above the line is 1 (yes), below is 0 (no).

COMPOUND	ASSIGNED CLASS
O=c1c2c3c(ccc2cc2n1CCc1cc4c(cc1-2)OCO4)OCO3 [8-oxocoptisine]	0 (no)
COc1cc2c(cc1OC)-c1cc3ccc4c(c3c[n+]1CC2)OCO4 [epiberberine]	1 (yes)
COc1ccc2cc3[n+](cc2c1OC)CCc1cc2c(cc1-3)OCO2 [berberine]	1 (yes)
COc1cc2c(cc1OC)-c1cc3ccc4c(c3c(=O)n1CC2)OCO4 [8-oxoepiberberine]	0 (no)
COc1cc2c(cc1OC)C(=O)NCC2 [corydaldine]	0 (no)
Cn1c(=O)n(CCC2(O)C(=O)Nc3ccccc32)c(=O)c2ccccc21 (centres unmarked) [wuchuyuamide-I]	0 (no)
CCCCC=CCCCCCCCc1cc(=O)c2ccccc2n1C [evocarpine]	1 (yes)
O=C1NCCc2cc3c(cc21)OCO3 [noroxyhydrastinine]	1 (yes)

* * *

# ASSAY INFO: PK study of the 12 alkaloids in rat plasma after oral administration of ZJ and FZJ extract (LC–MS/MS)
# Assay type: in vivo
# SETTINGS: rat plasma, oral ZJ extract
VALUE TYPE: Tsec (time of the secondary peak in C–T curve) (min)

COMPOUND	READOUT UNIT	TEST RESULT
COc1cc2c(cc1OC)-c1cc3ccc4c(c3c[n+]1CC2)OCO4 [epiberberine]	min	90
COc1cc2c(cc1OC)-c1cc3ccc4c(c3c(=O)n1CC2)OCO4 [8-oxoepiberberine]	min	300
COc1ccc2cc3[n+](cc2c1OC)CCc1cc2c(cc1-3)OCO2 [berberine]	min	300
O=c1c2c3c(ccc2cc2n1CCc1cc4c(cc1-2)OCO4)OCO3 [8-oxocoptisine]	min	90
O=C1NCCc2cc3c(cc21)OCO3 [noroxyhydrastinine]	min	300
c1c2c(cc3c1OCO3)-c1cc3ccc4c(c3c[n+]1CC2)OCO4 [coptisine]	min	90
CCCCC=CCCCCCCCc1cc(=O)c2ccccc2n1C [evocarpine]	min	240
Cn1c(=O)n(CCC2(O)C(=O)Nc3ccccc32)c(=O)c2ccccc21 (stereo not drawn) [wuchuyuamide-I]	min	20
COc1cc2c(cc1OC)C(=O)NCC2 [corydaldine]	min	300

* * *

# ASSAY INFO: PK study of the 12 alkaloids in rat plasma after oral administration of ZJ and FZJ extract (LC–MS/MS)
# Assay type: in vivo
# SETTINGS: 3.38 g/kg; rat plasma, oral ZJ extract, mean ± SD, n = 6; read-out: MRT0→t (converted)
VALUE TYPE: MRT last

COMPOUND	TEST RESULT
COc1cc2c(cc1OC)-c1cc3ccc4c(c3c[n+]1CC2)OCO4 [epiberberine]	10.8 h
COc1cc2c(cc1OC)C(=O)NCC2	6.72 h
COc1cc2c(cc1OC)-c1cc3ccc4c(c3c(=O)n1CC2)OCO4 [8-oxoepiberberine]	7.51 h
O=c1c2c3c(ccc2cc2n1CCc1cc4c(cc1-2)OCO4)OCO3	10.1 h
O=C1NCCc2cc3c(cc21)OCO3 [noroxyhydrastinine]	8.82 h
COc1ccc2cc3[n+](cc2c1OC)CCc1cc2c(cc1-3)OCO2	6.46 h
CCCCC=CCCCCCCCc1cc(=O)c2ccccc2n1C	4.19 h
Cn1c(=O)n(CCC2(O)C(=O)Nc3ccccc32)c(=O)c2ccccc21 (centres unmarked) [wuchuyuamide-I]	3.86 h

* * *

Recorded AIC (Akaike's information criterion method), two-compartment model fitting, one value per entry.
# ASSAY INFO: Two-compartment model fitting of C–T curves (DAS 2.0)
# Assay type: in vivo, rat
# SETTINGS: oral FZJ extract
VALUE TYPE: AIC (Akaike's information criterion method), two-compartment model fitting

COMPOUND	TEST RESULT
COc1cc2c(cc1OC)C(=O)NCC2	3.947
CCCCC=CCCCCCCCc1cc(=O)c2ccccc2n1C	27.61
Cn1c(=O)n(CCC2(O)C(=O)Nc3ccccc32)c(=O)c2ccccc21 (stereo not shown) [wuchuyuamide-I]	66.844
O=C1NCCc2cc3c(cc21)OCO3 [noroxyhydrastinine]	16.505

* * *

# ASSAY INFO: Dose modified systemic exposure (AUC0→∞/D, Cmax/D)
# SETTINGS: oral FZJ extract
Recorded Cmax/D (ratio of Cmax and dose), one value per entry.

MOLECULE	Cmax/D (ratio of Cmax and dose)
COc1cc2c(cc1OC)-c1cc3ccc4c(c3c[n+]1CC2)OCO4 [epiberberine]	0.81
Cn1c(=O)n(CCC2(O)C(=O)Nc3ccccc32)c(=O)c2ccccc21 (centres unmarked) [wuchuyuamide-I]	59.61
COc1cc2c(cc1OC)C(=O)NCC2	173.00
O=C1NCCc2cc3c(cc21)OCO3 [noroxyhydrastinine]	158.50
CCCCC=CCCCCCCCc1cc(=O)c2ccccc2n1C	2.74

* * *

# ASSAY INFO: PK study of the 12 alkaloids in rat plasma after oral administration of ZJ and FZJ extract (LC–MS/MS)
# Assay type: in vivo
# SETTINGS: 3.76 g/kg; rat plasma, oral FZJ extract, mean ± SD, n = 6; read-out: MRT0→∞ (converted)

COMPOUND	MRT inf, h
CCCCC=CCCCCCCCc1cc(=O)c2ccccc2n1C	9.3
COc1ccc2cc3[n+](cc2c1OC)CCc1cc2c(cc1-3)OCO2	4.68
COc1cc2c(cc1OC)-c1cc3ccc4c(c3c[n+]1CC2)OCO4 [epiberberine]	5.26
COc1cc2c(cc1OC)C(=O)NCC2	3.99
Cn1c(=O)n(CCC2(O)C(=O)Nc3ccccc32)c(=O)c2ccccc21 (stereo not drawn) [wuchuyuamide-I]	6.89
O=C1NCCc2cc3c(cc21)OCO3 [noroxyhydrastinine]	5.25

* * *

# ASSAY INFO: PK study of the 12 alkaloids in rat plasma after oral administration of ZJ and FZJ extract (LC–MS/MS)
# Assay type: in vivo
# SETTINGS: rat, in vivo, po, 3.76 g/kg
Recorded half-life, one value per entry.

COMPOUND	half-life
COc1cc2c(cc1OC)-c1cc3ccc(OC)c(OC)c3c[n+]1CC2	2.51 h
C[n+]1c2n(c(=O)c3ccccc31)CCc1c-2[nH]c2ccccc12 [dehydroevodiamine]	5.03 h
c1c2c(cc3c1OCO3)-c1cc3ccc4c(c3c[n+]1CC2)OCO4	2.93 h

* * *

# ASSAY INFO: Stability of analytes in rat plasma under storage conditions
# Assay type: physicochemical
# SETTINGS: rat plasma, medium QC concentration, n = 6
# Protocol: The stabilities of analytes in plasma were assessed by analyzing the QC samples at three concentration levels under the following storage conditions: after three freeze (−20 °C)-thaw (room temperature) cycles; stored at −20 °C for 30 days, and comparing the results with those of freshly prepared QC samples. Stabilities of the processed samples at room temperature for 24 h were also assessed.

COMPOUND	Stability RE, 30 days at −20 °C
Cn1c(=O)n(CCC2(O)C(=O)Nc3ccccc32)c(=O)c2ccccc21 (stereo not drawn) [wuchuyuamide-I]	−10.79%
CCCCC=CCCCCCCCc1cc(=O)c2ccccc2n1C	−14.67%
COc1cc2c(cc1OC)-c1cc3ccc4c(c3c[n+]1CC2)OCO4 [epiberberine]	−13.86%
